System: RXF 393
Experiment: NCI tumour cell line growth inhibition, 48 h
Active and inactive are the calls of the source. Cut-off read from the data, not from the text of the source: active = GI50 up to about 1.1 µM and inactive = higher.
Kindly supply the reported GI50 values for the records listed here.

compound="OCC1OC(NC(=S)NCSCCC(F)(F)C(F)(F)C(F)(F)C(F)(F)C(F)(F)C(F)(F)F)C(O)C(O)C1O (stereo not given)" test_system="RXF 393" endpoint_label=GI50 value_reported="35.2 µM (inactive)"

Could you report GI50 for every entry in the following list?
1. COc1ccc(CNC2=Nc3ccncc3S(=O)(=O)N2c2ccccc2)cc1
2. CC(=O)NC(Cc1ccccc1)NC(=O)O (stereo not given)
3. Cc1ccc(C2=C(c3ccccc3)C(Br)(c3ccccc3)C(c3ccccc3)=C2c2ccc(C)cc2)cc1
4. Cc1ccc2c(=O)cc(Cc3cccs3)[nH]c2n1
5. O=[N+]([O-])c1ccc(S(=O)(=O)Cc2ccccc2)c2nonc12
6. COC(=O)C1(Cc2ccccc2)Cc2cc3c(cc2C1=O)CCC3 (stereo not given)
7. CN(CCc1ccccn1)/[N+]([O-])=N/O.CNCCc1ccccn1

50.7 µM (inactive)
> 100 µM (inactive)
> 100 µM (inactive)
> 100 µM (inactive)
17.7 µM (inactive)
36.8 µM (inactive)
> 100 µM (inactive)

Could you report GI50 for every entry in the following list?
1. CCN(CC)CCNc1ccc2nnn3c4ccc(OCCN(CC)CC)cc4c(=O)c1c23
2. C[C@@H]1OC(=O)C[C@H]2CC(=O)N(CCC3CN(S(=O)(=O)C(F)(F)F)c4ccccc43)C[C@@H]21 (stereo not given in full)

["62.5 µM (inactive)", "> 100 µM (inactive)"]

---

Tested on: UACC-62
Assay: NCI tumour cell line growth inhibition, 48 h
Calls of active or inactive are those of the source. No stated cut-off is given here; in the data, active = GI50 up to about 1.1 µM and inactive = higher.
Your response should consist of one outcome taken from active, inactive

For orientation, consider the following solved cases.
molecule="CO/S(=N/S(=O)(=O)c1ccccc1)c1ccccc1[N+](=O)[O-] (centres undefined)" label_class=inactive
molecule=N#CCCC(C#N)(C#N)CCC#N label_class=inactive
molecule=O=C(Nc1nn(C(=O)c2ccc(Cl)cc2)c(=O)s1)c1ccc(Cl)cc1 label_class=inactive
molecule=Cc1cc2oc(=O)[nH]c(=S)c2c(C)c1C label_class=inactive
molecule=Nc1n[nH]c2nc3ccc(C(F)(F)F)cc3nc12 label_class=inactive
molecule=CC(=O)C(=NNc1ccc(-n2c(C)nc3ccccc3c2=O)cc1)C(C)=O label_class=inactive
molecule=CCP(C)(=O)CC label_class=inactive
molecule=O=C1c2ccccc2C(=O)c2nn(N=P(CP(=Nn3nc4c(n3)C(=O)c3ccccc3C4=O)(c3ccccc3)c3ccccc3)(c3ccccc3)c3ccccc3)nc21 label_class=inactive
molecule=Cc1ccnc2[nH]c(-c3ccccc3)cc(=O)c12 label_class=active
molecule="O=C1N2CCc3c([nH]c4ccccc34)C23CC2CCCC12S3 (centres undefined)" label_class=inactive

# outcome recorded in this test, key = NC(=O)c1c(NC=O)ncn1C1OCC(O)C(O)C1O (centres undefined)
inactive

# outcome recorded in this test, key = O=C(CC(C(=O)c1ccsc1)c1ccccc1)c1ccccc1 (centres undefined)
inactive

# outcome recorded in this test, key = Cc1cc(O)nc(NN2C(Cl)C(=O)C2c2c(O)ccc3ccccc23)n1 (centres undefined)
inactive

# outcome recorded in this test, key = "CSc1ccc(Nc2cc(=O)[nH]c(=O)[nH]2)cc1"
inactive

# outcome recorded in this test, key = OC(CN(CCCl)CCCl)C(O)C(O)C(O)CN(CCCl)CCCl (centres undefined)
inactive

# outcome recorded in this test, key = "CS(=O)(=O)c1ccc(/C=N/NC(N)=S)cc1"
inactive

# outcome recorded in this test, key = NC1CC=C(COC(=O)C(O)(c2ccccc2)C2CC2)CC1 (centres undefined)
inactive

# outcome recorded in this test, key = "CN(CCc1ccccn1)/[N+]([O-])=N/O.CNCCc1ccccn1"
inactive

# outcome recorded in this test, key = "Cc1cn2c(/C=C3/C(=O)Nc4ccccc43)c(C)nc2s1"
inactive

# outcome recorded in this test, key = "CC(C)=C1C(=O)c2c(Cl)sc(Cl)c2C1=O"
inactive

# outcome recorded in this test, key = O=C(O)C12CC3CC(C1)C2C=C3P(=O)(O)O (centres undefined)
inactive

# outcome recorded in this test, key = O=C(O)CC(C(=O)O)C1c2ccccc2-c2ccccc21 (centres undefined)
inactive

# outcome recorded in this test, key = "O=P1(O)C=CC2(CCCC2)O1"
inactive

# outcome recorded in this test, key = COC1(OC)C2C=CC1C([C@](C)(N)CO)C2 (some centres undefined)
inactive
